Origin of values: the supplement of paper PMC10567573

B1: KIAA1161 (parent)
chain: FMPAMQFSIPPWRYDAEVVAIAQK

Variants of: B1
assay-details: protein stability index of a GFP-peptide fusion (GPS, HEK-293T) (PSI 1-6); higher = more stable;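 further: lentivirally expressed fusions sorted by FACS into six bins by GFP to DsRed ratio, PSI derived from sequencing read proportions per bin multiplied by bin number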
assay-setup: c terminus: a fixed tail appended
I'd appreciate it if you could supply protein stability index values for the items below.
One number for each entry.

1. V19K : 1.99

// each variant listed below needs its protein stability index
1. P11K
2. R13S

1: 1.65; 2: 1.63
